Target: T1, Mature Activin A (human, UniProt P08476 311-426)
T1 construct: also called active Activin A; INHBA mature
T1 sequence: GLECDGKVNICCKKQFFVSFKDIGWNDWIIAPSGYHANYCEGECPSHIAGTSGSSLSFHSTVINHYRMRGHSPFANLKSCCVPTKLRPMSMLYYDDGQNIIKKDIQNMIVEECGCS
Test: ELISA dose-response, coated antigen
Output Satisfied for records whose EC50 is lower than 0.4 nM, Not satisfied for records at or above 0.4 nM.

Answered cases to consult:
For AB854 (antibody, IgG1, V domains shown, also called clone 854) VH: EVQLVQSGAEVKKPGASVKVSCKASGYTFPSHYISWVRQAPGQGLEWMGGMNPITGHTIYAQKLQGRGTMTTDPSTSTAYMELRSLRSDDTAVYYCARDMRYDILPGRSYYYGMDVWGQGTTVTVSS VL: ESALTQPASVSGSPGQSITISCTGTTGSIASNYVSWYQQHPGKAPKLMIYDTTNRPPGVSNRFSGSKSGNTASLTISGLQAEDEADYYCQSTERGRSDVIFGGGTKLTVL , is the recorded EC50 below the cut-off of 0.4 nM?
Satisfied

Strictly below 0.4 nM in EC50? AB731 (antibody, IgG1, V domains shown, also called clone 731) VH: QVQLQQPGTELVKPGASVKLSCKASGYTFTSYWMHWVKQRPGQGLEWIGNINPSNGGTNYNEKFKSKATLTVDKSSSTAYMQLSSLTSEDSAVYYCSITTVVAYWYFDVWGTGTTVTVSS VL: ENVLTQSPAIMSASPGEKVTISCSASSSVSYMYWYQQKPGSSPKPWIFRTYNLASGVPARFSGSGSGTSYSLTISNMEAEDAATYYCQQRSSYPWTFGGGTKLEIK
Not satisfied

Further cases:
Answer whether the binder AB347 (antibody, IgG1, V domains shown) VH: QVQLQESGPGLVKPSQTLSLTCTVSGFPLSTSRMGVNWIRQPPGKGLEWIGYINPSGATDYNPSLKSRVTMSVDTSKNQFSLKVNSVTAADTAVYYCARAGYPDVWGKGTTVTVSS VL: EIVMTQSPATLSLSPGERATLSCRASQNIGHSLAWYQQKPGQAPRLLIYGASIRAPGIPARFSGSGSGTDFTLTISSLEPEDFAVYYCQQYITWPSTFGGGTKVEIK has EC50 strictly less than 0.4 nM
Not satisfied

I wonder whether AB843 (antibody, IgG1, V domains shown) VH: EVQLVQSGAEVKKPGASVKVSCKASGDTSSHSHIHWVRQAPGQGLEWMGWINPRSGATNYAQKLQGRGTMTTDPSTSTAYMELRSLRSDDTAVYYCARDRGGRTNGVGAFDIWGQGTMVTVSS VL: ESALTQPASVSGSPGQSITISCTGTSGDIGRYNYVSWYQQHPGKAPKLMIYEDIERPSGVSNRFSGSKSGNTASLTISGLQAEDEADYYCQVWDATLDLVFGGGTKLTVL has EC50 below 0.4 nM. Can you tell?
Satisfied

I wonder whether AB852 (antibody, IgG1, V domains shown) VH: QVTLRESGPALVKPTQTLTLTCTVSGFSLSDTRWGVNWIRQPPGKALEWIGYINDRGTTDYNSALKSRLTISKDTSKNQVVLTMTNMDPVDTATYYCAHTLHTREFVGMDVWGQGTTVTVSS VL: DIVMTQSPDSLAVSLGERATINCKSSQSVLDTSTNRNYLAWYQQKPGQPPKLLIYGASIRAGGVPDRFSGSGSGTDFTLTISSLQAEDVAVYYCQQYETWPWTFGGGTKVEIK has EC50 below 0.4 nM. Can you tell?
Not satisfied

Hello, I'm reviewing records and need to know if EC50 of AB342 (antibody, IgG1, V domains shown) VH: EVQLVESGGGLVQPGGSLRLSCAASGFDFGEHWMSWVRQAPGKGLELVASIKGDASDTYYPDSVKGRFTISRDNAKNSLYLQMNSLRAEDTAVYYCVKDLSKQWLGIDYWGQGTLVTVSS VL: DIVMTQSPLSLPVTPGEPASISCRSSQSLLHSNEKNYLHWYLQKPGQSPQLLIYDASKRASGVPDRFSGSGSGTDFTLKISRVEAEDVGVYYCVQDLHTPFTFGGGTKVEIK is below 0.4 nM. Could you check?
Not satisfied
